Reported values of OR10a response (VUAA1-normalized) at 10 μM for individual entries
Target: Drosophila OR10a (Drosophila melanogaster, UniProt Q9VYZ1)
Construct: expressed in transfected cells
Sequence (Q9VYZ1 whole entry, one chain of several, the tested form may be a part): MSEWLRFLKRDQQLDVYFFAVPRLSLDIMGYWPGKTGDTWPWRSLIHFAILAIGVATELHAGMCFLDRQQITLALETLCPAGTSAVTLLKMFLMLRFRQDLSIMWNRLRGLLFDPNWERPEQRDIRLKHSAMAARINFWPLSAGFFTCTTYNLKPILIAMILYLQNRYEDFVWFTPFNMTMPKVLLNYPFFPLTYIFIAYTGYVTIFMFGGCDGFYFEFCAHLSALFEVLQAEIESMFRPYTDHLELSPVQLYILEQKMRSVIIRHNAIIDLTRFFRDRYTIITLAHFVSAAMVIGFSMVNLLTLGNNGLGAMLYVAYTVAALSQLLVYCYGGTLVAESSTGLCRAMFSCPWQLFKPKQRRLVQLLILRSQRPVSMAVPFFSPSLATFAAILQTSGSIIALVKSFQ
Protocol: Calcium ion fluorescence (GCaMP6) assay, OR10a stable HEK293 cell line
Type: cell-based
Condition Details: OR10a cell line, VOC concentration 10 μM
Just the number, please, no unit after it.

Worked set:
Molecule: Cc1ccc(C(C)C)cc1
Value Observed: 0.00
//
Molecule: CC/C=C\CCO
Value Observed: 0.19

Query: Item CCCOC(C)=O [propyl acetate] with Drosophila OR10a (Drosophila melanogaster, UniProt Q9VYZ1) - OR10a response (VUAA1-normalized) at 10 μM?
Response: 0.09

Query: Item COC(=O)c1ccccc1 [methyl benzoate] with Drosophila OR10a (Drosophila melanogaster, UniProt Q9VYZ1) - OR10a response (VUAA1-normalized) at 10 μM?
Response: 0.64

Query: Item `Cc1cccc(C)c1` with Drosophila OR10a (Drosophila melanogaster, UniProt Q9VYZ1) - OR10a response (VUAA1-normalized) at 10 μM?
Response: 0.00

Query: Item C=CC(C)(O)CCC=C(C)C (centres unmarked) with Drosophila OR10a (Drosophila melanogaster, UniProt Q9VYZ1) - OR10a response (VUAA1-normalized) at 10 μM?
Response: 0.07

Query: Item `CCCCCCCCC=O` with Drosophila OR10a (Drosophila melanogaster, UniProt Q9VYZ1) - OR10a response (VUAA1-normalized) at 10 μM?
Response: 0.00

Query: Item `OCCc1ccccc1` with Drosophila OR10a (Drosophila melanogaster, UniProt Q9VYZ1) - OR10a response (VUAA1-normalized) at 10 μM?
Response: 0.06

Query: Item CCCCCOC(C)=O [pentyl acetate] with Drosophila OR10a (Drosophila melanogaster, UniProt Q9VYZ1) - OR10a response (VUAA1-normalized) at 10 μM?
Response: 0.08

----------
Reported values of OR98a response (VUAA1-normalized) at 10 μM for individual entries
Target: Drosophila OR98a (Drosophila melanogaster, UniProt Q9VAZ3)
Construct: expressed in transfected cells
Sequence (Q9VAZ3 whole entry, one chain of several, the tested form may be a part): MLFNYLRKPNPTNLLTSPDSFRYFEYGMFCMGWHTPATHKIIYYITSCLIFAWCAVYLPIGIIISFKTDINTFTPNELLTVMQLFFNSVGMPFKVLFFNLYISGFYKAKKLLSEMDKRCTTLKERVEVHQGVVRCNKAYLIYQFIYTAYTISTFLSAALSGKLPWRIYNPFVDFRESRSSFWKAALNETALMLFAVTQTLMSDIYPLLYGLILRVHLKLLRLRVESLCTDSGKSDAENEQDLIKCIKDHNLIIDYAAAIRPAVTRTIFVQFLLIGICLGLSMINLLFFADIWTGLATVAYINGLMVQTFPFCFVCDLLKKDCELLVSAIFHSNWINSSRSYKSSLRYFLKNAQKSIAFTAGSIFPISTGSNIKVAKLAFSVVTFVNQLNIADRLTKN
Protocol: Calcium ion fluorescence (GCaMP6) assay, OR98a stable HEK293 cell line
Format: cell-based
Condition Details: OR98a cell line, VOC concentration 10 μM
Description: These VUAA1 normalized ∆F values were used to compare the different receptors and ligands. The concentration-dependent effect of the reference ligands on their cognate cell lines was examined in more detail. Twelve different ligand concentrations were measured on each cell line in an overall 0.01 μM to 100 μM concentration range with 5 repetitions with three technical replicates each time. […]
Just the number, please, no unit after it.

Compound: CC/C=C\CCOC(C)=O [Z-3-hexenyl acetate]
Value Observed: 0.00

Compound: CCCCCOC(C)=O [pentyl acetate]
Value Observed: 0.00

Compound: CCCOC(C)=O [propyl acetate]
Value Observed: 0.08

Query: Item CC/C=C\CCO [Z-3-hexenol] with Drosophila OR98a (Drosophila melanogaster, UniProt Q9VAZ3) - OR98a response (VUAA1-normalized) at 10 μM?
Response: 0.17

Query: Item Cc1ccccc1C [o-xylene] with Drosophila OR98a (Drosophila melanogaster, UniProt Q9VAZ3) - OR98a response (VUAA1-normalized) at 10 μM?
Response: 0.00

Query: Item C=CC(C)(O)CCC=C(C)C (stereo not shown) [linalool] with Drosophila OR98a (Drosophila melanogaster, UniProt Q9VAZ3) - OR98a response (VUAA1-normalized) at 10 μM?
Response: 0.00

Query: Item Cc1cccc(C)c1 [m-xylene] with Drosophila OR98a (Drosophila melanogaster, UniProt Q9VAZ3) - OR98a response (VUAA1-normalized) at 10 μM?
Response: 0.00

Query: Item COC(=O)c1ccccc1 [methyl benzoate] with Drosophila OR98a (Drosophila melanogaster, UniProt Q9VAZ3) - OR98a response (VUAA1-normalized) at 10 μM?
Response: 0.00

Query: Item C=Cc1ccccc1 [styrene] with Drosophila OR98a (Drosophila melanogaster, UniProt Q9VAZ3) - OR98a response (VUAA1-normalized) at 10 μM?
Response: 0.00

Query: Item Cc1ccccc1 [toluene] with Drosophila OR98a (Drosophila melanogaster, UniProt Q9VAZ3) - OR98a response (VUAA1-normalized) at 10 μM?
Response: 0.00

Query: Item C=C1CCC2(C(C)C)CC12 (stereo not shown) [sabinene] with Drosophila OR98a (Drosophila melanogaster, UniProt Q9VAZ3) - OR98a response (VUAA1-normalized) at 10 μM?
Response: 0.10

Query: Item CCCCCCCCC=O [nonanal] with Drosophila OR98a (Drosophila melanogaster, UniProt Q9VAZ3) - OR98a response (VUAA1-normalized) at 10 μM?
Response: 0.00

Query: Item Cc1ccc(C)cc1 [p-xylene] with Drosophila OR98a (Drosophila melanogaster, UniProt Q9VAZ3) - OR98a response (VUAA1-normalized) at 10 μM?
Response: 0.00

----------
Target: Drosophila OR71a (Drosophila melanogaster)
Construct: expressed in transfected cells
Sequence (Q9VUK5 1-378): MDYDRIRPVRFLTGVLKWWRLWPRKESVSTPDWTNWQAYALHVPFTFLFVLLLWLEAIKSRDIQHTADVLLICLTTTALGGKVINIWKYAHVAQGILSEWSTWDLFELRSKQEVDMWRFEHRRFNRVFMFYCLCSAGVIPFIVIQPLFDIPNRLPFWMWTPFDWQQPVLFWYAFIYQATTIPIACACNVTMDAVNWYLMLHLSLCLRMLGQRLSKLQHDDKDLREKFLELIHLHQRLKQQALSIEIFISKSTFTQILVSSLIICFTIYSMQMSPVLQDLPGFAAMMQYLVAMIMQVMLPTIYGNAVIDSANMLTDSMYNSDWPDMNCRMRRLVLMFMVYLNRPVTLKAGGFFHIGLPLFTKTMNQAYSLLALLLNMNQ
Sequence (Q9VNB5 1-486 partner): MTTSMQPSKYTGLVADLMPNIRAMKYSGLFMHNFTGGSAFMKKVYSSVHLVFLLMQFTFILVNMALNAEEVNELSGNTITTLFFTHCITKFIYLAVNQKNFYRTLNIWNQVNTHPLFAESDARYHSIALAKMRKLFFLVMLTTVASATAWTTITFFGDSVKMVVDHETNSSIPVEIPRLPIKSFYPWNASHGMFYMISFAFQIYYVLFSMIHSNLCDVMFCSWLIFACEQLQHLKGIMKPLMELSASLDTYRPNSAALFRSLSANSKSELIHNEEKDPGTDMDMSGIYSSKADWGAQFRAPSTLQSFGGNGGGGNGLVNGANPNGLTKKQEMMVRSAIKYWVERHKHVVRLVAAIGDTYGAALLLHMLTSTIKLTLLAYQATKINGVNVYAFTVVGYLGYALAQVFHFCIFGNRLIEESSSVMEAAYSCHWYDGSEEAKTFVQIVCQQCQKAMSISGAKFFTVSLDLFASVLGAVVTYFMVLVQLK
Protocol: Calcium ion fluorescence (GCaMP6) assay, OR71a stable HEK293 cell line
Assay type: cell-based
Condition Details: OR71a cell line; cc. 10 µM; VUAA1-normalized response, mean of biological replicates
Measured Metric: Average response
Just the number, please, no unit after it.

Worked set:
Molecule: CCCCC(C)=O
Average response: 0.00

Molecule: CC(=O)OCC(C)C [isobutyl acetate]
Average response: 0.0316

Molecule: CC(C)=CCC/C(C)=C/CC/C(C)=C/CO
Average response: 0.0452

Molecule: Cc1cccc(C)c1
Average response: 0.00

Molecule: C=C1[C@H]2CC[C@@H]3[C@H]2C(C)(C)CCC[C@]13C [(+)-longifolene]
Average response: 0.03

Query: Name the reported Average response value associated with the molecule CCCCCCCCC(CO)CCCCCC (centres unmarked)
Response: 0.00

Query: Name the reported Average response value associated with the molecule `OCCc1ccccc1`
Response: 0.03

Query: Name the reported Average response value associated with the molecule C=CC(O)CCCCC (centres unmarked)
Response: 0.0223

----------
Target: Drosophila OR47a (Drosophila melanogaster)
Construct: expressed in transfected cells
Sequence (P81921 whole entry, one chain of several): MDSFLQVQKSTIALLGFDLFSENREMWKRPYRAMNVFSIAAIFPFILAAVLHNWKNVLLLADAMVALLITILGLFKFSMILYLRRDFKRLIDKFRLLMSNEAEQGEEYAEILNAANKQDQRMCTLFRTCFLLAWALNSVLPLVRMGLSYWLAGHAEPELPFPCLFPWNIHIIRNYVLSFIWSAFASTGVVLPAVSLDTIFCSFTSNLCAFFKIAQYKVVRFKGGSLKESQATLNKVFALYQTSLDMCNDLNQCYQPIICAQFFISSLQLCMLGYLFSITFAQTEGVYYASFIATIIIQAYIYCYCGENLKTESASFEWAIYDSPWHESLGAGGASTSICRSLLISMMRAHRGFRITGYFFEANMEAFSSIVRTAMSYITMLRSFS
Protocol: Calcium ion fluorescence (GCaMP6) assay, OR47a stable HEK293 cell line
Assay type: cell-based
Condition Details: OR47a cell line; odorant cc. 100 µM; mean of biological replicates
Decide by Average response: equal to or exceeding 0.05 means 1 (yes), less means 0 (no).

Molecule: CCCCCC(=O)OCC [ethyl hexanoate]
Qualitative Label: 1 (yes)
//
Molecule: C=C(C)[C@H]1CC=C(C)CC1 [limonene]
Qualitative Label: 0 (no)
//
Molecule: CC(C)=CCC/C(C)=C/CC/C(C)=C/CO
Qualitative Label: 0 (no)
//
Molecule: C=CCc1ccc(O)c(OC)c1
Qualitative Label: 0 (no)
//
Molecule: CCCCCCCCC(CO)CCCCCC (centres unmarked)
Qualitative Label: 0 (no)

Query: Check this molecule for Average response at or above 0.05: CCCC(O)CC (centres unmarked)
Response: 1 (yes)

Query: Check this molecule for Average response at or above 0.05: C=C1CCC2(C(C)C)CC12 (centres unmarked)
Response: 0 (no)

Query: Check this molecule for Average response at or above 0.05: `CC(=O)c1ccccc1`
Response: 0 (no)

Query: Check this molecule for Average response at or above 0.05: C=CC(O)CCCCC (centres unmarked)
Response: 1 (yes)

Query: Check this molecule for Average response at or above 0.05: `Cc1cccc(C)c1`
Response: 0 (no)

Query: Check this molecule for Average response at or above 0.05: `CCCCCCCO`
Response: 0 (no)

Query: Check this molecule for Average response at or above 0.05: `Cc1ccc(C)cc1`
Response: 0 (no)

Query: Check this molecule for Average response at or above 0.05: CC(=O)OCCC(C)C [isopentyl acetate]
Response: 1 (yes)

Query: Check this molecule for Average response at or above 0.05: `OCCc1ccccc1`
Response: 1 (yes)

Query: Check this molecule for Average response at or above 0.05: C=C(C)[C@H]1CC=C(C)CC1 [(R)-(+)-limonene]
Response: 0 (no)
